Numbers sourced from patent US9693556B2.

Test system: Alopecurus myosuroides (ALOMY)
RUN_DESCRIPTION: Post-emergence herbicidal glasshouse test on Alopecurus myosuroides
Assay type: in vivo
ASSAY_SETUP: post-emergence; 1000 g/h; evaluated after 13 days
MEASUREMENT_NAME: POST Application ALOMY herbicidal damage (five point scale)

>  <COMPOUND>
Cn1ncc(-c2ccc(C(F)(F)F)nc2S(C)(=O)=O)c(O)c1=O [Compound 4.003]

>  <OBSERVED_RESULT>
5 (5=80-100% damage)

$$$$
>  <COMPOUND>
Cc1c(-c2cnn(C)c(=O)c2O)ccc2c1C(=O)N(C)S2(=O)=O [Compound 1.035]

>  <OBSERVED_RESULT>
2 (2=20-39% damage)

$$$$
>  <COMPOUND>
Cn1ncc(-c2cnc(C(F)(F)F)nc2N2CCOCC2)c(O)c1=O [Compound 8.001]

>  <OBSERVED_RESULT>
1 (1=0-19% damage)

$$$$
>  <COMPOUND>
CCS(=O)(=O)c1ccccc1-c1cnn(C)c(=O)c1O [Compound 1.042]

>  <OBSERVED_RESULT>
5 (5=80-100% damage)

$$$$
>  <COMPOUND>
Cn1ncc(-c2cc(OC(F)(F)F)ccc2Cl)c(O)c1=O [Compound 1.100]

>  <OBSERVED_RESULT>
1 (1=0-19% damage)

$$$$

I am curious: what POST Application ALOMY herbicidal damage (five point scale) value has been reported for Cn1ncc(-c2ccc(C(F)(F)F)cc2S(C)(=O)=O)c(O)c1=O [Compound 1.028] ?
5 (5=80-100% damage)

I am curious: what POST Application ALOMY herbicidal damage (five point scale) value has been reported for CC(=O)Oc1c(-c2ccc(C(F)(F)F)cc2S(C)(=O)=O)cnn(C)c1=O [Compound 3.001] ?
5 (5=80-100% damage)
